Target: CDK9/CyclinT1 (Homo sapiens (Human), UniProt P50750)
Sequence (P50750 whole entry): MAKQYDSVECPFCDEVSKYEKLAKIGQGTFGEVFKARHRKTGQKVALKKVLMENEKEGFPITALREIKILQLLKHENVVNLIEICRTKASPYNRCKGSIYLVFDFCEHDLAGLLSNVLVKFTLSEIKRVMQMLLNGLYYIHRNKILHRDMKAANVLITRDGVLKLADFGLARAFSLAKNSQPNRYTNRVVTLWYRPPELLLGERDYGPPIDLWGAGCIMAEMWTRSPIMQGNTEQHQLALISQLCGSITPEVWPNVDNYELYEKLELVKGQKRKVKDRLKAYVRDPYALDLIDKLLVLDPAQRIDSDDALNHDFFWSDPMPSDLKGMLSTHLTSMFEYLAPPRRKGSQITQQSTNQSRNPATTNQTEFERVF
Sequence (O60563 whole entry partner): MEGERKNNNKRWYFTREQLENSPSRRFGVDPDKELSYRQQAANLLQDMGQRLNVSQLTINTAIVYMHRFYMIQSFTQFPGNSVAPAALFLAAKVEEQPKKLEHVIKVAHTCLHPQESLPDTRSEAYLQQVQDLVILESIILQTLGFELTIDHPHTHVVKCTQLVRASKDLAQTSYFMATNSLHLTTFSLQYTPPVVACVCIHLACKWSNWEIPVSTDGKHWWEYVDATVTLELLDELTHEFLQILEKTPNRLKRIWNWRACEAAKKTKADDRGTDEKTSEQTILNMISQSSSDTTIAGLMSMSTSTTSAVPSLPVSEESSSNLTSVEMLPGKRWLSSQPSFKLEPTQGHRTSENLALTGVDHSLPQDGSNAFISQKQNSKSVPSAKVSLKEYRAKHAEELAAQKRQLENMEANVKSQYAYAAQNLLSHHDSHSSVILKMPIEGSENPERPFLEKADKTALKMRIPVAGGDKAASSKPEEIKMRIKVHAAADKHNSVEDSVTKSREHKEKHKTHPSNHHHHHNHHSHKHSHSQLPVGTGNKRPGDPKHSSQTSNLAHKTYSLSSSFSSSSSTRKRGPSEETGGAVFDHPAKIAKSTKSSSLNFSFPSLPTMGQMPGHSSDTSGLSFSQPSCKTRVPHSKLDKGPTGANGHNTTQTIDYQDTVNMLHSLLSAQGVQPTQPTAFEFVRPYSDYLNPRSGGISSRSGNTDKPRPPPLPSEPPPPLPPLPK
Test: CDK9/CycT1 high ATP kinase assay (TR-FRET)
Settings: 2 mM ATP (high ATP); median; read-out: CDK9/CyclinT1, 2 mM ATP (high ATP), IC50 - [mol/l] (median)
METRIC: IC50 (µM)

Study these solved cases before continuing.
- LINE NOTATION: "COc1ccc(-c2cnc(CNc3nc(N4CCOCC4)nc4c(C(F)(F)F)cnn34)[nH]2)cn1"
  RECORDED MEASUREMENT: 3.05
- LINE NOTATION: "FC(F)(F)c1ccc(-c2nnc(CNc3nc(N4CCOCC4)nn4c(C(F)(F)F)cnc34)[nH]2)cn1"
  RECORDED MEASUREMENT: 0.847
- LINE NOTATION: "FC(F)(F)Oc1ccc(-c2nnc(CNc3nc(N4CCOCC4)nc4c(Br)cnn34)[nH]2)cc1"
  RECORDED MEASUREMENT: 6.35
- LINE NOTATION: "FC(F)(F)Oc1ccc(-c2nnc(CNc3nc(N4CCOCC4)nc4c(C(F)(F)F)cnn34)[nH]2)cc1"
  RECORDED MEASUREMENT: 17.8

a = FC(F)(F)c1ccc(-c2nnc(CNc3nc(N4CCOCC4)nc4c(Br)cnn34)[nH]2)cc1
b = FC(F)(F)Oc1ccc(-c2nnc(CNc3nc(N4CCOCC4)nn4c(C(F)(F)F)cnc34)[nH]2)cn1
I'd appreciate it if you could identify which of a and b has the greater IC50. // return label of chosen record a
(a: 4.58 µM, b: 0.506 µM)
